Molecular target: α1D receptor (Homo sapiens)
Sequence (P25100 whole entry): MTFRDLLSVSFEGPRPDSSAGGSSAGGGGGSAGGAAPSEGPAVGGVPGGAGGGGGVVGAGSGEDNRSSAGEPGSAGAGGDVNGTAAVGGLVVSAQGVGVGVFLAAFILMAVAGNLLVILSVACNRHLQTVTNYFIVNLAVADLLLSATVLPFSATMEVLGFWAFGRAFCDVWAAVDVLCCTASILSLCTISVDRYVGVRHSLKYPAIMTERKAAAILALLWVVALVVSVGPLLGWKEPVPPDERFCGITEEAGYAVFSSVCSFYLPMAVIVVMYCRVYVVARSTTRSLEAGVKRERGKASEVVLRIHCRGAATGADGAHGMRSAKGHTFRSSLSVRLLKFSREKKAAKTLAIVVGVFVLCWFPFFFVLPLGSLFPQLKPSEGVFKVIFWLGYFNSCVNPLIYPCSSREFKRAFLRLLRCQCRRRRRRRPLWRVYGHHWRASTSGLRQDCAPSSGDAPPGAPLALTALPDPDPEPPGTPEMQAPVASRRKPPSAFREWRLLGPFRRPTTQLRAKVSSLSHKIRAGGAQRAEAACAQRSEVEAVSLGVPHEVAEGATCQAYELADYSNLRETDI
Experiment: Competitive antagonist activity, adrenergic α1D
Settings: read-out: IC50, α1D antagonism

compound	IC50 (nM)
CN1C[C@H](C(=O)N[C@]2(C)O[C@@]3(O)[C@@H]4CCCN4C(=O)[C@H](Cc4ccccc4)N3C2=O)CC2c3cccc4[nH]c(C(F)(F)F)c(c34)CC21 (stereo partly shown) [2-CF3-dihydroergotamine]	40.2

----------
Molecular target: α1A receptor (Homo sapiens)
Sequence (P35348 1-466): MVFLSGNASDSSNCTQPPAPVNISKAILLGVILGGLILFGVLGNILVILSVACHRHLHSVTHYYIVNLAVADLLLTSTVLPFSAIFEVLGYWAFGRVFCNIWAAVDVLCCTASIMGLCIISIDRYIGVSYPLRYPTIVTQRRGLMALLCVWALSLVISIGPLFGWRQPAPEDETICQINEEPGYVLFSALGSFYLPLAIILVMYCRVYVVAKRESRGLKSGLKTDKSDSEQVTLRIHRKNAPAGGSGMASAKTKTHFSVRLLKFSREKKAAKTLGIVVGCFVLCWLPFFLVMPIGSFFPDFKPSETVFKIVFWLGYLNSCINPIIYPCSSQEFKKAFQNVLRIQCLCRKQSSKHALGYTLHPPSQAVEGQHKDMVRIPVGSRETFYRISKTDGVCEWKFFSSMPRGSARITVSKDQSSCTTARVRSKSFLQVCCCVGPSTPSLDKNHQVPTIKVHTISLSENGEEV
Assay: Competitive antagonist activity, adrenergic α1A
Details: read-out: IC50, α1A antagonism
pIC50: −log10 of the molar value.
reported property: pIC50

compound	target desc	measured result
CN1C[C@H](C(=O)N[C@]2(C)O[C@@]3(O)[C@@H]4CCCN4C(=O)[C@H](Cc4ccccc4)N3C2=O)CC2c3cccc4[nH]c(C(F)(F)F)c(c34)CC21 (stereo partly shown) [2-CF3-dihydroergotamine]	α1A receptor (Homo sapiens)	6.68

----------
Target: human 5-HT1D receptor (Homo sapiens, UniProt P28221)
Sequence (P28221 whole entry): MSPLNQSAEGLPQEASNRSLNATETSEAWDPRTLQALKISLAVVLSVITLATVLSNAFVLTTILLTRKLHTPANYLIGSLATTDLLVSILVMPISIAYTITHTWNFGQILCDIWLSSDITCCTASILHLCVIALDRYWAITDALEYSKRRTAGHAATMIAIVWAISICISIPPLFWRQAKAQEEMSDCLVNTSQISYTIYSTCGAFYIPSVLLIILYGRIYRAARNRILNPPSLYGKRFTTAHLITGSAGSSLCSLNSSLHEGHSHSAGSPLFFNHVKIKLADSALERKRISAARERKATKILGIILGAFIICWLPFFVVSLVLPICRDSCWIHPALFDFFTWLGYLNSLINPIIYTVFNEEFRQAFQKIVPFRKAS
Test: GTPγS agonist assay, 5-HT1D
pEC50: −log10 of the molar value.

compound	target desc	pEC50
CN1C[C@H](C(=O)N[C@]2(C)O[C@@]3(O)[C@@H]4CCCN4C(=O)[C@H](Cc4ccccc4)N3C2=O)CC2c3cccc4[nH]c(C(F)(F)F)c(c34)CC21 (stereo partly shown) [2-CF3-dihydroergotamine]	human 5-HT1D receptor (Homo sapiens, UniProt P28221)	7.87

----------
Target: NK1 (Homo sapiens, UniProt P25103)
Sequence (P25103 whole entry): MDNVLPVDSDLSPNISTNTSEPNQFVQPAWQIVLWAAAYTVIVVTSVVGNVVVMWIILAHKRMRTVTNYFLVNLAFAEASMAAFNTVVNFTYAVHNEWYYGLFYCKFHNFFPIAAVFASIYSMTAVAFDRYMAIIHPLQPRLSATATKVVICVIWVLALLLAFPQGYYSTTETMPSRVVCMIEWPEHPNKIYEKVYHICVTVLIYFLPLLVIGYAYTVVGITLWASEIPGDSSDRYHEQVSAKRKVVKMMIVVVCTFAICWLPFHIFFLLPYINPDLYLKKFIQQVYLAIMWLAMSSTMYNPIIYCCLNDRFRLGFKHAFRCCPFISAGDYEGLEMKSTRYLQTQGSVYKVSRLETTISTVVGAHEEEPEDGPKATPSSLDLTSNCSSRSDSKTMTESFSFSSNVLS
Experiment: Neurokinin receptor Aequorin assay
Settings: antagonism

compound	IC50
CN1C[C@H](C(=O)N[C@]2(C)O[C@@]3(O)[C@@H]4CCCN4C(=O)[C@H](Cc4ccccc4)N3C2=O)CC2c3cccc4[nH]c(C(F)(F)F)c(c34)CC21 (stereo partly shown) [2-CF3-dihydroergotamine]	> 1 µM

----------
Molecular target: UniProt:P29274
Sequence (P29274 whole entry): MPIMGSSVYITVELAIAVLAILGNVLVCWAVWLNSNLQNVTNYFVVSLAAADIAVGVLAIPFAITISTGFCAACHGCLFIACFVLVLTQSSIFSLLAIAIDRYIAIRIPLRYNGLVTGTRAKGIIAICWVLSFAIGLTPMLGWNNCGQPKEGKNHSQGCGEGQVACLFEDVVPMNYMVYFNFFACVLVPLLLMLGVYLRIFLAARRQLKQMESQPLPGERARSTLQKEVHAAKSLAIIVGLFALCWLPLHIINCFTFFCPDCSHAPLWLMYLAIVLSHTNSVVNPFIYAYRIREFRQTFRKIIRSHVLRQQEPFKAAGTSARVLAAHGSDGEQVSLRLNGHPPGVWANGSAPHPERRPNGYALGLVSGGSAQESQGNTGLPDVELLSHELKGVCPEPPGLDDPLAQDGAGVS
Assay: Adenosine A2a cAMP HTRF assay
Conditions: HEK293, cAMP; read-out: EC50, Adenosine A2a agonism
pEC50: −log10 of the molar value.
reported property: pEC50

molecule	target desc	reported property	measured result
CN1C[C@H](C(=O)N[C@]2(C)O[C@@]3(O)[C@@H]4CCCN4C(=O)[C@H](Cc4ccccc4)N3C2=O)CC2c3cccc4[nH]c(C(F)(F)F)c(c34)CC21 (stereo partly shown) [2-CF3-dihydroergotamine]	UniProt:P29274	pEC50	8.28

----------
Biological target: human 5-HT2B receptor (Homo sapiens)
Construct: host or cells: CHO-K1 coexpressing mitochondrial apoaequorin
Sequence (P41595 whole entry): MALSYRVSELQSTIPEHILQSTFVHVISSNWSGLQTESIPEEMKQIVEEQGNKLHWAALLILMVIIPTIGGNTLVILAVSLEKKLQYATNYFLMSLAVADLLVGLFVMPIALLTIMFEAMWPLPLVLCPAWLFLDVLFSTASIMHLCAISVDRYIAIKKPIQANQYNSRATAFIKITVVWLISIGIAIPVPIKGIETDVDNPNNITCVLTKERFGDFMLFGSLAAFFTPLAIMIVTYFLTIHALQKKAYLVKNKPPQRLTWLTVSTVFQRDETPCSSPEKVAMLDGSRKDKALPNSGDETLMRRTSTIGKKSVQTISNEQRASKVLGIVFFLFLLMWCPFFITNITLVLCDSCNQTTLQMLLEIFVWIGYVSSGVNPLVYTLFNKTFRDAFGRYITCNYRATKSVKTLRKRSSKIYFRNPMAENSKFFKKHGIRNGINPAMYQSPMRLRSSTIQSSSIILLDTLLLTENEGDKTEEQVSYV
Assay: Aequorin assay, agonist activity at 5-HT2B
Assay type: cell-based
Details: reference agonist; read-out: EC50, 5-HT2B agonism
pEC50: −log10 of the molar value.
reported property: pEC50

>>> print(df.to_string())
                                   compound  reported_property  measured_result
0  CC(N)Cc1c[nH]c2ccc(O)cc12 (stereo not drawn) [α-methyl-5-HT, reference compound]              pEC50             9.00

----------
Biological target: OX1 (Homo sapiens)
Sequence (O43613 1-425): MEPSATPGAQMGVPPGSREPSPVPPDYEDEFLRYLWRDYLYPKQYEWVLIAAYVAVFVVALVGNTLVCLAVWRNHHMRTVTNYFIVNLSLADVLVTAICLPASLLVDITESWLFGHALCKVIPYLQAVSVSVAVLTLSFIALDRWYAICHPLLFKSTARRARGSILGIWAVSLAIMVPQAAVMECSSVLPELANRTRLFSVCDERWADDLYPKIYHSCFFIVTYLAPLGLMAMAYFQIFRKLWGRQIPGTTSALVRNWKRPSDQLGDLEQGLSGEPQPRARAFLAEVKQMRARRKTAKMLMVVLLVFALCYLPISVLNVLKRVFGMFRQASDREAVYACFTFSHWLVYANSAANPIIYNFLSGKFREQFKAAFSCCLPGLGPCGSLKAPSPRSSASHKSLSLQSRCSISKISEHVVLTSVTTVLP
Assay: Orexin receptor Aequorin assay
Details: antagonism

compound	IC50
CN1C[C@H](C(=O)N[C@]2(C)O[C@@]3(O)[C@@H]4CCCN4C(=O)[C@H](Cc4ccccc4)N3C2=O)CC2c3cccc4[nH]c(C(F)(F)F)c(c34)CC21 (stereo partly shown) [2-CF3-dihydroergotamine]	> 10 µM

----------
Target: human α2C receptor (Homo sapiens)
Sequence (P18825 1-462): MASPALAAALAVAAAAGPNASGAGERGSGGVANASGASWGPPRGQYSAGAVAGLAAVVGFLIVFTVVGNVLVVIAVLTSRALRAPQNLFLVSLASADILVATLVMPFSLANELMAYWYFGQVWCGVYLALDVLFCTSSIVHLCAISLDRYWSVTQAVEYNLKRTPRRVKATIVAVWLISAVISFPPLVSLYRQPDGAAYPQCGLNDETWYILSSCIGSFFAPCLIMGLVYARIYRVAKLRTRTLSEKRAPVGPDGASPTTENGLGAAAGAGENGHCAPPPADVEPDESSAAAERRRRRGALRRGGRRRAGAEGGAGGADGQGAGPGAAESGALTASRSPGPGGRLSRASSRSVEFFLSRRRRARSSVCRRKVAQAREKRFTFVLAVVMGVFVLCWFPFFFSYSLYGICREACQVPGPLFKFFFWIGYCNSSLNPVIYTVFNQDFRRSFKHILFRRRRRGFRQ
pIC50: −log10 of the molar value.
reported property: pIC50

compound	measured result
CN1C[C@H](C(=O)N[C@]2(C)O[C@@]3(O)[C@@H]4CCCN4C(=O)[C@H](Cc4ccccc4)N3C2=O)CC2c3cccc4[nH]c(C(F)(F)F)c(c34)CC21 (stereo partly shown) [2-CF3-dihydroergotamine]	5.56

----------
Molecular target: CCK2 (Homo sapiens, UniProt P32239)
Sequence (P32239 1-447): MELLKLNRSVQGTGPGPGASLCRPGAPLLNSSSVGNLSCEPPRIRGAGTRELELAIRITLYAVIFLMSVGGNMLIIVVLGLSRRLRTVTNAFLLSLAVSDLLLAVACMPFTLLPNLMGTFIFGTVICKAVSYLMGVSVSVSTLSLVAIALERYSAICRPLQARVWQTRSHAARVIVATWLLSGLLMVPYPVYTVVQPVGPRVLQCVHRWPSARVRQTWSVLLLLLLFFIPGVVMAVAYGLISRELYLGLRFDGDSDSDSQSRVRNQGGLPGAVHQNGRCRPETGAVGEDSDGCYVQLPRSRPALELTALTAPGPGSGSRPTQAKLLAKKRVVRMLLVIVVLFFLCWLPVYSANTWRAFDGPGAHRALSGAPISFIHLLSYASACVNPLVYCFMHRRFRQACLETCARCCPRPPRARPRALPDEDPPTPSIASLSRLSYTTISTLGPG
Assay: Cholecystokinin receptor Aequorin assay
Conditions: antagonism
pIC50: −log10 of the molar value.

compound	target desc	pIC50
CN1C[C@H](C(=O)N[C@]2(C)O[C@@]3(O)[C@@H]4CCCN4C(=O)[C@H](Cc4ccccc4)N3C2=O)CC2c3cccc4[nH]c(C(F)(F)F)c(c34)CC21 (stereo partly shown) [2-CF3-dihydroergotamine]	CCK2 (Homo sapiens, UniProt P32239)	< 5.00

----------
Target: human α2A receptor (Homo sapiens, UniProt P08913)
Sequence (P08913 whole entry): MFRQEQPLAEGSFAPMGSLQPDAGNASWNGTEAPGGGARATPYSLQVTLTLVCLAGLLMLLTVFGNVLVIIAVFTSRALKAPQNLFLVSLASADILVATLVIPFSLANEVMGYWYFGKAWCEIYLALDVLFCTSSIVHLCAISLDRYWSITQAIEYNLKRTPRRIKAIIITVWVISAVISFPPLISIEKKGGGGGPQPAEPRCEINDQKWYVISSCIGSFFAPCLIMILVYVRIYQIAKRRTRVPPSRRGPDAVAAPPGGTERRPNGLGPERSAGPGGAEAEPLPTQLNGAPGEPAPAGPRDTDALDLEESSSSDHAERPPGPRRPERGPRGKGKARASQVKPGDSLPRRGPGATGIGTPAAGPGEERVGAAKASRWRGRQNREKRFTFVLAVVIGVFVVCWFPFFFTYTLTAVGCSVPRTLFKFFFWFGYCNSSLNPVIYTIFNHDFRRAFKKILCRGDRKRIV
pIC50: −log10 of the molar value.
reported property: pIC50

compound	reported property	measured result
CN1C[C@H](C(=O)N[C@]2(C)O[C@@]3(O)[C@@H]4CCCN4C(=O)[C@H](Cc4ccccc4)N3C2=O)CC2c3cccc4[nH]c(C(F)(F)F)c(c34)CC21 (stereo partly shown) [2-CF3-dihydroergotamine]	pIC50	6.39

----------
Biological target: human 5-HT1B receptor (Homo sapiens)
Sequence (P28222 whole entry): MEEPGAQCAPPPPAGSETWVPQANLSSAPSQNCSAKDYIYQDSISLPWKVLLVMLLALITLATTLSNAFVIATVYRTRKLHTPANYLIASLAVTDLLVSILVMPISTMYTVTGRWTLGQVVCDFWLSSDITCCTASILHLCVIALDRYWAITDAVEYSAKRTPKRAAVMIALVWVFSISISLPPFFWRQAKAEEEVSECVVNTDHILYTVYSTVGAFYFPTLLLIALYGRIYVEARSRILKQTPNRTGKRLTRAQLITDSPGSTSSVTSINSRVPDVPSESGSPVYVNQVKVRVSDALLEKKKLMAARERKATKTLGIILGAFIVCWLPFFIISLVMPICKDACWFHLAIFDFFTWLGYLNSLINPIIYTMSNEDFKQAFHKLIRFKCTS
Experiment: GTPγS agonist assay, 5-HT1B

compound	EC50, µM
CN1C[C@H](C(=O)N[C@]2(C)O[C@@]3(O)[C@@H]4CCCN4C(=O)[C@H](Cc4ccccc4)N3C2=O)CC2c3cccc4[nH]c(C(F)(F)F)c(c34)CC21 (stereo partly shown) [2-CF3-dihydroergotamine]	0.406
